Task for the reader: assign each of the following compounds its reported log10 CC50 at 72 h.
- MEASUREMENT_PROTOCOL: Cytotoxicity against bovine MDBK cells assessed as decrease in cell viability after 72 hrs by MTT assay
- Assay type: cell-based, Bos taurus
- APPLIED_CONDITIONS: cattle
Transform log10 | Measure CC50 at 72 h | Unit µM

COMPOUND	OBSERVED_PROPERTY	OBSERVED_VALUE
NS(=O)(=O)c1ccc(N2N=C(c3ccc(OCc4ccccc4)cc3)CC2c2cccc(F)c2)cc1 (stereo not drawn)	log10 CC50 at 72 h	1.18

Record log10 CC50 at 72 h per entry; entries follow.
1. NS(=O)(=O)c1ccc(N2N=C(c3ccc(Oc4ccccc4)cc3)CC2c2cccc(Cl)c2)cc1 (stereo not drawn)
2. Cc1cccc(C2CC(c3ccccc3)=NN2c2ccc(S(N)(=O)=O)cc2)c1 (stereo not drawn)
3. Cc1cccc(C2CC(c3ccc(OCc4ccccc4)cc3)=NN2c2ccc(S(N)(=O)=O)cc2)c1 (stereo not drawn)
4. NS(=O)(=O)c1ccc(N2N=C(c3ccccc3)CC2c2cccc(F)c2)cc1 (stereo not drawn)
5. NC(=O)c1ncn([C@@H]2O[C@H](CO)[C@@H](O)[C@H]2O)n1

Result ::
0.78
1.36
1.75
1.30
1.79

###

- Tested on: Bovine viral diarrhea virus 1
- MEASUREMENT_PROTOCOL: Antiviral activity against Bovine viral diarrhea virus NADL ATCC VR 534 infected in bovine MDBK cells assessed as protection against virus-induced cytopathic effect after 3 to 4 days by MTT assay
- Format: functional, organism-based, Bovine viral diarrhea virus 1-NADL
- APPLIED_CONDITIONS: Bovine viral diarrhea virus isolates and strains, ATCC VR 534, MDBK
OBSERVED_PROPERTY: EC50

Use the examples below as a reference point.
COMPOUND	OBSERVED_PROPERTY	OBSERVED_VALUE
Cc1ccccc1C1CC(c2ccc(Oc3ccccc3)cc2)=NN1c1ccc(S(N)(=O)=O)cc1 (stereo not drawn)	EC50	> 16 µM
NS(=O)(=O)c1ccc(N2N=C(c3ccccc3)CC2c2ccc(F)cc2)cc1 (stereo not drawn)	EC50	> 18 µM

Next, consider the following compound.
Query :: Provide one value: measured EC50 of NS(=O)(=O)c1ccc(N2N=C(c3ccccc3)CC2c2ccccc2)cc1 (stereo not drawn)
Result :: > 16 µM
